Protocol Description: Tmax in castrated pig plasma withdrawn from hepatic vein at 0.8 mg/kg administered as intrajejunal dose 20 mins after ketoconazole administration by UPLC-tandem mass spectrometry
Format: ADME, organism-based, Sus scrofa
Design: dose 0.8 mg/kg
Particulars: male
Measure Name: Tmax (h)
Field format: number, assumed h, no unit text.

Sample CC(C)(C)NC(=O)[C@H]1CC[C@H]2[C@@H]3CC[C@H]4NC(=O)C=C[C@]4(C)[C@H]3CC[C@]12C [FINASTERIDE] — what was its Tmax?
1

---

Protocol Description: Terminal half life in castrated pig plasma withdrawn from femoral vein at 0.8 mg/kg administered as intrajejunal dose by UPLC-tandem mass spectrometry
Type: ADME, organism-based, Sus scrofa
Design: dose 0.8 mg/kg
Particulars: male, read-out: beta t1/2 (converted)
Measure Name: half-life (h)
Field: numeric (h). Do not append units.

Need half-life, item CC(C)(C)NC(=O)[C@H]1CC[C@H]2[C@@H]3CC[C@H]4NC(=O)C=C[C@]4(C)[C@H]3CC[C@]12C [FINASTERIDE]
1.6

---

Protocol Description: Apparent half-life of the terminal disposition phase in castrated pig plasma withdrawn from femoral vein at 0.2 mg/kg, iv by UPLC-tandem mass spectrometry
Format: ADME, organism-based, Sus scrofa
Design: dose 0.2 mg/kg, route intravenous
Particulars: male, read-out: t1/2 lambda z (converted)
Measure Name: half-life (h)
Return type: number; implicit unit h.

Which half-life is listed for CC(C)(C)NC(=O)[C@H]1CC[C@H]2[C@@H]3CC[C@H]4NC(=O)C=C[C@]4(C)[C@H]3CC[C@]12C [FINASTERIDE] ?
3.4

---

Protocol Description: Cmax in castrated pig bile at 0.2 mg/kg, iv by UPLC-tandem mass spectrometry
Format: ADME, organism-based, Sus scrofa
Design: dose 0.2 mg/kg, route intravenous
Particulars: male
Measure Name: Cmax (nM)
Express it in nM; write the number only.

Would you mind telling me what Cmax value was observed for CC(C)(C)NC(=O)[C@H]1CC[C@H]2[C@@H]3CC[C@H]4NC(=O)C=C[C@]4(C)[C@H]3CC[C@]12C [FINASTERIDE] ?
500

---

Protocol Description: Cmax in castrated pig plasma withdrawn from hepatic vein at 0.8 mg/kg administered as intrajejunal dose 20 mins after ketoconazole administration by UPLC-tandem mass spectrometry
Type: ADME, organism-based, Sus scrofa
Design: dose 0.8 mg/kg
Particulars: male
Measure Name: Cmax
In your response, put the unit directly after the numeric value.

# lookup: Cmax of CC(C)(C)NC(=O)[C@H]1CC[C@H]2[C@@H]3CC[C@H]4NC(=O)C=C[C@]4(C)[C@H]3CC[C@]12C [FINASTERIDE]
1400 nM

---

Protocol Description: Terminal half life in castrated pig plasma withdrawn from hepatic vein at 0.8 mg/kg administered as intrajejunal dose by UPLC-tandem mass spectrometry
Assay type: ADME, organism-based, Sus scrofa
Design: dose 0.8 mg/kg
Particulars: male, read-out: beta t1/2 (converted)
Measure Name: half-life (h)
Give a bare numeral; the unit h is implied.

Consider the compound shown here: CC(C)(C)NC(=O)[C@H]1CC[C@H]2[C@@H]3CC[C@H]4NC(=O)C=C[C@]4(C)[C@H]3CC[C@]12C [FINASTERIDE] What is its recorded half-life?
1.7

---

Protocol Description: Ratio of AUC in bile to plasma withdrawn from portal vein in castrated pig at 0.8 mg/kg administered as intrajejunal dose 20 mins after ketoconazole administration by UPLC-tandem mass spectrometry
Type: ADME, organism-based, Sus scrofa
Parameters: dose 0.8 mg/kg
Particulars: male, read-out: Ratio AUC
Measure Name: Kp at 20 min
I only need the number, thanks.

Give its Kp at 20 min value. Item: CC(C)(C)NC(=O)[C@H]1CC[C@H]2[C@@H]3CC[C@H]4NC(=O)C=C[C@]4(C)[C@H]3CC[C@]12C [FINASTERIDE]
0.7

FYI, the data here is from ChEMBL document CHEMBL3525971.
